Test system: 596521-263-R-J1-PDC complex spheroids, viability % of control
METHOD NOTES: Anticancer human tumor 596521-263-R-J1-PDC patient-derived soft tissue sarcoma cell line growth inhibition [GQUAD]; active = viability on the fitted dose curve at most 10% of control; inactive = the rest
DETAILS: second compound 0.316 µM; first compound 3.16 µM
Source text: DNA G-quadruplex Stabilizer Agents in Combinations in Complex Spheroids A high-throughput screen of multi-cell type tumor spheroids was designed to identify active combinations of DNA G-quadruplex stabilizer agents and targeted small molecules. […] Compounds. […] If the clinical Cmax for an agent had not been determined, the highest concentration tested was 10 microM. […]
Labels: active, inactive

>>> label_class("CC(=O)O[C@H]1C(=O)[C@@]2(C)[C@H]([C@H](OC(=O)c3ccccc3)[C@]3(O)C[C@H](OC(=O)[C@H](O)[C@@H](NC(=O)c4ccccc4)c4ccccc4)C(C)=C1C3(C)C)[C@]1(OC(C)=O)CO[C@@H]1C[C@@H]2O + Cc1[nH]c2ccc(F)cc2c1-c1nc2c3cccnc3c3ncccc3c2[nH]1")
"active"
>>> label_class("C=CC(=O)N1CCN(c2nc(=O)n(-c3c(C)ccnc3C(C)C)c3nc(-c4c(O)cccc4F)c(F)cc23)C(C)C1 (stereo not given) + CN(C)c1ccc(Nc2c3ccc(NC(=O)CCN4CCCC4)cc3nc3cc(NC(=O)CCN4CCCC4)ccc23)cc1")
"inactive"
>>> label_class("O=C(NO)c1cnc(N2CCN(S(=O)(=O)c3ccc4ccccc4c3)CC2)nc1 + Cc1cnc(CNC(=O)c2c(=O)c3ccc(N4CCCN(C)CC4)nc3n3c2sc2ccccc23)cn1")
"active"
>>> label_class("O=c1[nH]cc(F)c(=O)[nH]1 + Cc1cnc(CNC(=O)c2c(=O)c3ccc(N4CCCN(C)CC4)nc3n3c2sc2ccccc23)cn1")
"inactive"
>>> label_class("C=CCn1c(=O)c2cnc(Nc3ccc(N4CCN(C)CC4)cc3)nc2n1-c1cccc(C(C)(C)O)n1 + Cc1cnc(CNC(=O)c2c(=O)c3ccc(N4CCCN(C)CC4)nc3n3c2sc2ccccc23)cn1")
"inactive"

----------
Test system: 596521-263-R-J1-PDC complex spheroids, viability % of control
METHOD NOTES: Anticancer human tumor 596521-263-R-J1-PDC cell line growth inhibition [GQUAD];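 note: spheroids exposed to drugs for 7 days before viability reading; 100% = DMSO vehicle control viability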
DETAILS: second compound 0.316 µM; first compound 0.316 µM; hits give low values
// viability, T/C lookup, one value per entry
OBSERVATION TYPE: viability, T/C (%)

>>> recorded_measurement("COc1ncnc(C2CC2)c1-c1ncc2cnn(Cc3ccc(-c4nc(C(F)(F)F)cn4C(C)C)cc3)c2n1 + CN(C)c1ccc(Nc2c3ccc(NC(=O)CCN4CCCC4)cc3nc3cc(NC(=O)CCN4CCCC4)ccc23)cc1")
101
>>> recorded_measurement("O=c1[nH]cc(F)c(=O)[nH]1 + Cc1cnc(CNC(=O)c2c(=O)c3ccc(N4CCCN(C)CC4)nc3n3c2sc2ccccc23)cn1")
69.5
>>> recorded_measurement("CC(=O)O[C@H]1C(=O)[C@@]2(C)[C@H]([C@H](OC(=O)c3ccccc3)[C@]3(O)C[C@H](OC(=O)[C@H](O)[C@@H](NC(=O)c4ccccc4)c4ccccc4)C(C)=C1C3(C)C)[C@]1(OC(C)=O)CO[C@@H]1C[C@@H]2O + Cc1cnc(CNC(=O)c2c(=O)c3ccc(N4CCCN(C)CC4)nc3n3c2sc2ccccc23)cn1")
25.1
>>> recorded_measurement("CC1COCCN1c1cc(C2(O)CC3CCC(C2)O3)c2cnn(-c3ccn[nH]3)c2n1 (stereo not given) + CN(C)c1ccc(Nc2c3ccc(NC(=O)CCN4CCCC4)cc3nc3cc(NC(=O)CCN4CCCC4)ccc23)cc1")
47.3
>>> recorded_measurement("CC[C@@]1(O)C(=O)OCc2c1cc1n(c2=O)Cc2cc3c(CN(C)C)c(O)ccc3nc2-1 + Cc1[nH]c2ccc(F)cc2c1-c1nc2c3cccnc3c3ncccc3c2[nH]1")
49
>>> recorded_measurement("C=CC(=O)N1CCN(c2nc(=O)n(-c3c(C)ccnc3C(C)C)c3nc(-c4c(O)cccc4F)c(F)cc23)C(C)C1 (stereo not given) + Cc1[nH]c2ccc(F)cc2c1-c1nc2c3cccnc3c3ncccc3c2[nH]1")
89.5
>>> recorded_measurement("Cc1[nH]c2ccccc2c1CCNCc1ccc(/C=C/C(=O)NO)cc1 + CN(C)c1ccc(Nc2c3ccc(NC(=O)CCN4CCCC4)cc3nc3cc(NC(=O)CCN4CCCC4)ccc23)cc1")
1.67
>>> recorded_measurement("C#Cc1c(F)ccc2cc(O)cc(-c3ncc4c(N5CC6CCC(C5)N6)nc(OCC56CCCN5CC(F)C6)nc4c3F)c12 (stereo not given) + Cc1[nH]c2ccc(F)cc2c1-c1nc2c3cccnc3c3ncccc3c2[nH]1")
97.3
>>> recorded_measurement("Cc1cccc(N(C)C(=O)C2C(O)CCN2c2nc(C)cc(C(F)(F)F)c2C#N)c1 (stereo not given) + Cc1[nH]c2ccc(F)cc2c1-c1nc2c3cccnc3c3ncccc3c2[nH]1")
91.4
>>> recorded_measurement("CC(C)(O)C1CCC(Nc2ccc3ncc(-c4cccc(C(F)(F)F)c4)n3n2)CC1 (stereo not given) + CN(C)c1ccc(Nc2c3ccc(NC(=O)CCN4CCCC4)cc3nc3cc(NC(=O)CCN4CCCC4)ccc23)cc1")
83.4
